- Tested on: NCI-H226 lung
- experiment: NCI tumour cell line growth inhibition, 48 h
readout_name: TGI

> print(dat)
                                   molecule    system.name  readout.name  recorded.measurement
1  C=CC(=O)Nc1ccc(Nc2nccc(-c3ccc(N4CCCC4)c(C#N)c3)n2)cc1  NCI-H226 lung           TGI               > 25 µM
2                     N#Cc1cc(C#N)c(Cl)nc1N  NCI-H226 lung           TGI               > 10 µM
3  CN(C)CCCOc1ccccc1NC1=C(Cl)C(=O)C(Nc2ccccc2OCCCN(C)C)=C(Cl)C1=O  NCI-H226 lung           TGI               4.22 µM
4  Nc1ccn(C2OC(CO)C(O)C2F)c(=O)n1 (stereo unspecified)  NCI-H226 lung           TGI             > 5000 µM
5      O=C1C=CC2CCC1C2 (stereo unspecified)  NCI-H226 lung           TGI               98.5 µM
6  Cc1ccc(S(=O)(=O)N/N=C/c2oc(-c3cccc([N+](=O)[O-])c3)c(-c3cccc([N+](=O)[O-])c3)c2[N+](=O)[O-])cc1  NCI-H226 lung           TGI              > 100 µM
